Field: EC50, CreLuc assay, 100% hP. Provide a value for each of the binders that follow.
- test_system: T1, human neuropeptide Y2 (NPY2) receptor (human, UniProt P49146 1-381)
- T1 sequence (looked up): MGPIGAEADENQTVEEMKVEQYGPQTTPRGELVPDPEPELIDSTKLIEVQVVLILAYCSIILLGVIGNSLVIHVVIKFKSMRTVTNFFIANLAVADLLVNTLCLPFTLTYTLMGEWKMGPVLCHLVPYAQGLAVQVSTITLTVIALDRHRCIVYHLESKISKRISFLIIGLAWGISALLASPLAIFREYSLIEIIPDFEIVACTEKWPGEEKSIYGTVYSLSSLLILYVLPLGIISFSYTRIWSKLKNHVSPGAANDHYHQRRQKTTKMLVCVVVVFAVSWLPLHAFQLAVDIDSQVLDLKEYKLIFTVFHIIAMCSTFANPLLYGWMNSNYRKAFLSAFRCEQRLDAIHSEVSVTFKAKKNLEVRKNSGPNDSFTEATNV
- experiment: cell-based or functional assay
Starred links: 1 amine or outer side, 2 acyl side, 3 side chain; linkers in the order of their positions; H or OH if unused. Non-standard residues stand in square brackets, D forms with d. Groups on a side chain read outwards from the residue. No end group written: not given here. *: point of attachment. C20 diacid = O=C(O)CCCCCCCCCCCCCCCCCCC(=O)*; γGlu = O=C(O)[C@H](CCC(=O)[*:2])N[*:1]; εLys = N[C@@H](CCCCN[*:1])C(=O)[*:2]; Aib = CC(C)(N)C(=O)O
Field: numeric (nM). Do not append units.

Give me measured EC50, CreLuc assay, 100% hP, please, for this binder: YXEGTFTSDYSIXLEKQAQXAFVEWLIKGGPSYYVSLRHYYNWLTRQRY (Aib at 2, 13, 20; K28 side chain: C20DA-gGlu-gGlu-gGlu-gGlu-gGlu-gGlu-eLys; C-terminal NH2) [Compound 80]
54.8

Answer with the recorded EC50, CreLuc assay, 100% hP of YXEGTFTSDYSIXLEKQAQXAFVEWLIKGGPSSGASLRHYLNLXTRQRY (Aib at 2, 13, 20, 44; K28 side chain: C20DA-gGlu-gGlu-gGlu-gGlu-gGlu-gGlu-eLys; C-terminal NH2) [Compound 17] only.
450

Quick one: give measured EC50, CreLuc assay, 100% hP for Y[Aib]EGTFTSDYSI[Aib]LEKQAQ[Aib]AFVEWLIK([εLys-γGlu-γGlu-γGlu-γGlu-γGlu-C20 diacid])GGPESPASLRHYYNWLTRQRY-NH2 (also: TFA salt) [Compound 70]
67.2
